Provenance of the data: patent US10336726B2

- assay.protocol: In vivo determination of plasma and brain concentrations and unbound brain-to-plasma partition coefficient (Kp,uu,brain) in rats
- assay.setup: male, Sprague-Dawley, rat, brain, oral, 10 mg/kg, 1.0 hr post 10 mg/kg oral dose, using rat fu,brain 0.043, mean ± SD, read-out: Unbound brain conc. (Cu,brain)
- Protocol: In Vivo Determination of Unbound Brain-to-Plasma Partition Coefficient (Kp,uu,brain) in Rats […] Kp,uu,brain is calculated for each time point from the expression below where individual components are derived from a combination of in vitro and in vivo measurements carried out as described above: […]
observed.property: concentration at 1 h (nM)
Answers are plain numbers, in nM.

Fill in: concentration at 1 h of Cc1cc(OCc2ccc([C@@H](C)[C@]3(C)CC(=O)NC3=O)cc2)cc(C2CC2)n1 is ___ 41

###

- assay.protocol: In vivo determination of plasma and brain concentrations and unbound brain-to-plasma partition coefficient (Kp,uu,brain) in rats
- assay.setup: male, Sprague-Dawley, rat, brain, oral, 10 mg/kg, 3.0 hr post 10 mg/kg oral dose, using rat fu,brain 0.043, mean ± SD, read-out: Unbound brain conc. (Cu,brain)
- Method: In Vivo Determination of Unbound Brain-to-Plasma Partition Coefficient (Kp,uu,brain) in Rats […] Kp,uu,brain is calculated for each time point from the expression below where individual components are derived from a combination of in vitro and in vivo measurements carried out as described above: […]
observed.property: concentration at 3 h (nM)
Numbers only, in nM.

Fill in: concentration at 3 h of Cc1cc(OCc2ccc([C@@H](C)[C@]3(C)CC(=O)NC3=O)cc2)cc(C2CC2)n1 is ___ 22

###

- assay.protocol: In vivo determination of plasma and brain concentrations and unbound brain-to-plasma partition coefficient (Kp,uu,brain) in rats
- assay.setup: rat, brain/plasma; 1.0 hr post 10 mg/kg oral dose, male Sprague-Dawley rats, mean ± SD
observed.property: Kp uu at 1 h
Give bare numbers.

Fill in: Kp uu at 1 h of Cc1cc(OCc2ccc([C@@H](C)[C@]3(C)CC(=O)NC3=O)cc2)cc(C2CC2)n1 [Example 1] is ___ 0.89

###

- assay.protocol: Rat plasma and brain homogenate protein binding by equilibrium dialysis
- Format: in vitro ADME
- assay.setup: rat plasma, read-out: fraction unbound in plasma (fu,plasma)
observed.property: fraction unbound
One number for each entry.

Fill in: fraction unbound of Cc1cc(OCc2ccc([C@@H](C)[C@]3(C)CC(=O)NC3=O)cc2)cc(C2CC2)n1 is ___ 0.071

###

- assay.protocol: In vivo determination of plasma and brain concentrations and unbound brain-to-plasma partition coefficient (Kp,uu,brain) in rats
- assay.setup: male, Sprague-Dawley, rat, plasma, oral, 10 mg/kg, 3.0 hr post 10 mg/kg oral dose, mean ± SD, read-out: Total plasma conc. (Ctotal,plasma)
observed.property: concentration at 3 h (µM)
Answers are plain numbers, in µM.

Fill in: concentration at 3 h of Cc1cc(OCc2ccc([C@@H](C)[C@]3(C)CC(=O)NC3=O)cc2)cc(C2CC2)n1 is ___ 0.368

###

- assay.protocol: In vivo determination of plasma and brain concentrations and unbound brain-to-plasma partition coefficient (Kp,uu,brain) in rats
- assay.setup: male, Sprague-Dawley, rat, plasma, oral, 10 mg/kg, 1.0 hr post 10 mg/kg oral dose, using rat fu,plasma 0.071, mean ± SD, read-out: Unbound plasma conc. (Cu,plasma)
observed.property: concentration at 1 h (nM)
One number for each entry, in nM.

Fill in: concentration at 1 h of Cc1cc(OCc2ccc([C@@H](C)[C@]3(C)CC(=O)NC3=O)cc2)cc(C2CC2)n1 [Example 1] is ___ 47
